# TARGET OR SYSTEM: T1, human CD71 extracellular domain (human, UniProt P02786 89-760, biotinylated)
# T1 construct: also called hCD71; CD71-ECD
# T1 sequence (P02786 89-760): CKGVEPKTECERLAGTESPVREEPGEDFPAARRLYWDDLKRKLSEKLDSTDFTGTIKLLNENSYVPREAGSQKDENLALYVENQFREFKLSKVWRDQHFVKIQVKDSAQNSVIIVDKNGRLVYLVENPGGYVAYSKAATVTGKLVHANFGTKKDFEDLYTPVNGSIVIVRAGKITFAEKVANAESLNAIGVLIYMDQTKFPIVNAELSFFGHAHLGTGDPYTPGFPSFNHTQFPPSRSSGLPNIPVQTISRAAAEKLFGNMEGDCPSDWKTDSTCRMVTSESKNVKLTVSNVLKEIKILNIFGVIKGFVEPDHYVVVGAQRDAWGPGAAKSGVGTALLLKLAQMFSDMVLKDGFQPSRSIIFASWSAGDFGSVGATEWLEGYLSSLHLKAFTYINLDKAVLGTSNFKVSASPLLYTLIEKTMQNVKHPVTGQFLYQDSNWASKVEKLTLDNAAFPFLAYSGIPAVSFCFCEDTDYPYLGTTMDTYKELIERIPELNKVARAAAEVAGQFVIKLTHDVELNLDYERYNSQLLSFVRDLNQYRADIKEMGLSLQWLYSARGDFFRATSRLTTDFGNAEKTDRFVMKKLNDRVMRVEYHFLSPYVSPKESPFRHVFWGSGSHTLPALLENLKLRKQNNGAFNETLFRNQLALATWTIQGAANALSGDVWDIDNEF
# EXPERIMENT DESCRIPTION: primary ELISA; also: test concentration or dose not given here
VALUE KIND: RLU (RLU)

Solved cases (2 shown):
[
  {
    "BINDER": "CD71-binding FN3 domain of SEQ ID NO: 461 (designed binder) MLPAPKNLVVSRVTEDSARLSWTAPDAAFDSFFIGYLEPQPPGEAIGLFVPGSERSYDLTGLKPGTEYNVTIQGVKGGFPSMPLSPIFTT",
    "READOUT UNITS": "RLU",
    "RLU": "3.77e+06"
  },
  {
    "BINDER": "CD71-binding FN3 domain of SEQ ID NO: 458 (designed binder) MLPAPKNLVVSRVTEDSARLSWTAPDAAFDSFLDLLPSNWDIAGEAIVLTVPGSERSYDLTGLKPGTEYHVNILGVKGGKESLPLVANFTT",
    "READOUT UNITS": "RLU",
    "RLU": "3.44e+06"
  }
]

I. CD71-binding FN3 domain of SEQ ID NO: 476 (designed binder) MLPAPKNLVVSRVTEDSARLSWTAPDAAFDSFFIGYLEPQPPGEAIHLQVPGSERSYDLTGLKPGTEYNVTIQGVKGGFPSIPLIAVFTT
II. CD71-binding FN3 domain of SEQ ID NO: 467 (designed binder) MLPAPKNLVVSRVTEDSARLSWTAPDAAFDSFFIGYLEPQPPGEAIQLLVPGSERSYDLTGLKPGTEYNVTIQGVKGGFPSDPLVAYSTT
Enquiry: Hello, I am sorting some records. Could you say if I or II has the smaller RLU value? Your choice should be expressed through its label.
Return: II
